Here, each record is paired with measured IC50 data.
molecular target: ENPP-1 (Homo sapiens, UniProt P22413); construct: purchased Biovendor RD172124100; assay: ENPP-1 enzyme assay with cGAMP substrate; type: biochemical; settings: 200 pM ENPP-1, 10 μM substrate 2′3′-cGAMP, pH 7.4, 37° C., 30 minutes, Transcreener AMP2/GMP2 kit; average IC50
Sequence (P22413 whole entry): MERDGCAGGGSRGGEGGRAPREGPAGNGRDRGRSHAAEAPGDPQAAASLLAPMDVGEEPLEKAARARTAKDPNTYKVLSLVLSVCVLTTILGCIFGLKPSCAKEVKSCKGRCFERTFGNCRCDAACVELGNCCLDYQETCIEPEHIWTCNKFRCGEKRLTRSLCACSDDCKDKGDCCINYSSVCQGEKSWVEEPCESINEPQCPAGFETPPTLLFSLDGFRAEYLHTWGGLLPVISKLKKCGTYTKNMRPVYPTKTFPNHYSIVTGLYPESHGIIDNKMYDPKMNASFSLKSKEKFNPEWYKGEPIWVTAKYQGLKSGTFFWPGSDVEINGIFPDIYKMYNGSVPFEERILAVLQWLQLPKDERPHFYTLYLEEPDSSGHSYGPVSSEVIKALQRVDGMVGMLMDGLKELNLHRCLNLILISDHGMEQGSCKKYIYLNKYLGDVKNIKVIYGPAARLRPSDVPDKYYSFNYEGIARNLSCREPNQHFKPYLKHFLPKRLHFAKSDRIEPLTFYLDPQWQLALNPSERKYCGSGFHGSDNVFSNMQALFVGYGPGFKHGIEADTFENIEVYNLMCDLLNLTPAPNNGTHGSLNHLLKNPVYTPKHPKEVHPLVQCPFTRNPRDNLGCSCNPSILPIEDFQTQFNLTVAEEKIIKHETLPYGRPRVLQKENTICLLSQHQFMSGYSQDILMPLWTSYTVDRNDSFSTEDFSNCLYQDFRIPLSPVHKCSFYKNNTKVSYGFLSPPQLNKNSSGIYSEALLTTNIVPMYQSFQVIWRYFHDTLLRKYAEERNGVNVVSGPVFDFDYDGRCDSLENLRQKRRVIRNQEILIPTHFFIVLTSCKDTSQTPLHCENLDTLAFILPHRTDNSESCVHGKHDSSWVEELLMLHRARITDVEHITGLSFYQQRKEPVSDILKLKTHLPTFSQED

Examples from the recorded data:
INSERT INTO measurements (molecule, assay_system, endpoint_name, test_value) VALUES
  ('COc1ccc2c(c1)c1ncccc1n2Cc1ccc(CP(=O)(O)O)cc1 [Compound 14]', 'ENPP-1 (Homo sapiens, UniProt P22413)', 'IC50', '< 1 µM'),
  ('COc1cc(F)c2c(c1)c1ncccc1n2Cc1ccc(S(N)(=O)=O)cc1 [Compound 25]', 'ENPP-1 (Homo sapiens, UniProt P22413)', 'IC50', '1 to 10 µM'),
  ('COc1ccc2c(c1)c1ncccc1n2Cc1ccc(S(N)(=O)=O)cc1Cl [Compound 16]', 'ENPP-1 (Homo sapiens, UniProt P22413)', 'IC50', '< 1 µM'),
  ('COc1ccc2c(c1)c1ncccc1n2Cc1ccc(S(C)(=N)=O)cc1F (centres unmarked) [Compound 17]', 'ENPP-1 (Homo sapiens, UniProt P22413)', 'IC50', '< 1 µM'),
  ('CCS(=N)(=O)c1ccc(Cn2c3ccc(OC)cc3c3ncccc32)cc1 (centres unmarked) [Compound 11]', 'ENPP-1 (Homo sapiens, UniProt P22413)', 'IC50', '< 1 µM'),
  ('COc1ccc2c3c(n(Cc4ccc(S(N)(=O)=O)cc4)c2c1)CCCN3 [Compound 37]', 'ENPP-1 (Homo sapiens, UniProt P22413)', 'IC50', '> 10 µM'),
  ('COc1ccc2c(c1)c1ccncc1n2Cc1ccc(S(C)(=N)=O)cc1 (centres unmarked) [Compound 3]', 'ENPP-1 (Homo sapiens, UniProt P22413)', 'IC50', '< 1 µM');

Turning now to a further molecule:
Qu. What measured IC50 goes with COc1ccc2c(c1)c1ncccc1n2Cc1ccc(S(C)(=N)=O)cc1 (single isomer, unassigned) [Compound 10a] ?
Ans. < 1 µM

* * *

Here, each record is paired with measured pIC50 data.
target: ENPP-1 (Homo sapiens); construct: purchased Biovendor RD172124100; experiment: ENPP-1 enzyme assay with cGAMP substrate; format: biochemical; conditions: 200 pM ENPP-1, 10 μM substrate 2′3′-cGAMP, pH 7.4, 37° C., 30 minutes, Transcreener AMP2/GMP2 kit; average IC50
pIC50: −log10 of the molar value.

Examples from the recorded data:
INSERT INTO results (compound, assay_system, test_value) VALUES
  ('COc1ccc2c(c1)c1ncccc1n2Cc1ccc(S(C)(=N)=O)cc1OC (stereo not shown)', 'ENPP-1 (Homo sapiens)', '> 6.00'),
  ('COc1ccc2c(c1)c1ncccc1n2CCc1ccc(S(N)(=O)=O)cc1', 'ENPP-1 (Homo sapiens)', '< 5.00'),
  ('COc1ccc2c3cnccc3n(Cc3ccc(S(N)(=O)=O)cc3)c2c1', 'ENPP-1 (Homo sapiens)', '5.00 to 6.00'),
  ('COc1cc(Cl)c2c(c1)c1ncccc1n2Cc1ccc(S(N)(=O)=O)cc1', 'ENPP-1 (Homo sapiens)', '5.00 to 6.00'),
  ('COc1ccc2c3ncccc3n(Cc3ccc(S(N)(=O)=O)cc3)c2c1', 'ENPP-1 (Homo sapiens)', '> 6.00'),
  ('COc1cc2c3ncccc3n(Cc3ccc(S(N)(=O)=O)cc3)c2cc1OC', 'ENPP-1 (Homo sapiens)', '> 6.00');

Turning now to a further compound:
Qu. What measured pIC50 goes with CCOc1ccc2c(c1)c1ncccc1n2Cc1ccc(S(C)(=N)=O)cc1 (stereo not shown) ?
Ans. > 6.00
